TARGET_UNDER_TEST: T1, DnaT (wt, full length) (Escherichia coli K12, UniProt P0A8J2 1-179)
T1 sequence: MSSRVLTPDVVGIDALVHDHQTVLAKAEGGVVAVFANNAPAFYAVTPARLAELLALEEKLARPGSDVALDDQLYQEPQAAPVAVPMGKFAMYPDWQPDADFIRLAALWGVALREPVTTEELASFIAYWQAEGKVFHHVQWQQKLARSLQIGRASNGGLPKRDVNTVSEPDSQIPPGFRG
PROTOCOL_TEXT: fluorescence polarization; apparent; Hill h=1.8±0.2; Buffer A: 20 mM Tris-HCl pH 7.5, 40 mM NaCl, 5% v/v glycerol, 20 C; FPA 200 nM 5'-FAM DNA, Hill fit; EMSA 30 min at 20 C, gels in 0.5x TBE at 4 C
CONDITION: protein: recombinant; tags: His-MBP removed by TEV; label: 5'-FAM
ASSAY_METRIC: pKd
Please note pKd is a logarithmic value: minus log10 of concentration in mol/L. Answer with that number alone.

Give the measured pKd for AAAAAAAAAAAAAAAAAAAAAAAAAAAAAA (ssDNA) [5F-dA30] 4.41

Data origin: paper PMC4132743
